System under test: rCRLR/hRAMP1 (UniProt O60894+Q63118)
Assay name: competitive 125I-hCGRP binding, membranes expressing hybrid rCRLR/hRAMP1
Experimental setup: Table 4
pIC50: −log10 of the molar value.
Attribute measured: pIC50

[
  {
    "Molecule": "NCCCC[C@H](NC(=O)[C@@H](Cc1cc(Br)c(O)c(Br)c1)NC(=O)N1CCC(N2Cc3ccccc3NC2=O)CC1)C(=O)N1CCN(c2ccncc2)CC1 [BIBN4096BS]",
    "Attribute measured": "pIC50",
    "Reported measurement": 9.39
  }
]

---

System under test: mCRLR/mK74W RAMP1 (Mus musculus, UniProt Q9R1W5+Q9WTJ5, K74W)
Construct: The mouse RAMP1 expression vector construct was used as template
Assay name: competitive binding, membranes expressing mCRLR and mutant mK74W RAMP1
Experimental setup: Table 7
pIC50: −log10 of the molar value.
Attribute measured: pIC50

[
  {
    "Molecule": "NCCCC[C@H](NC(=O)[C@@H](Cc1cc(Br)c(O)c(Br)c1)NC(=O)N1CCC(N2Cc3ccccc3NC2=O)CC1)C(=O)N1CCN(c2ccncc2)CC1 [BIBN4096BS]",
    "Attribute measured": "pIC50",
    "Reported measurement": 10.00
  }
]

---

System under test: rCRLR/rRAMP1 (native rat CGRP receptor) (Rattus norvegicus, UniProt Q63118+Q9JJ74)
Construct: expressed in transfected cells; host or cells: 293 EBNA cells, transient co-transfection, membranes
Assay name: competitive 125I-hCGRP binding, membranes expressing rCRLR/rRAMP1
Experimental setup: Table 4
pIC50: −log10 of the molar value.

[
  {
    "Compound": "NCCCC[C@H](NC(=O)[C@@H](Cc1cc(Br)c(O)c(Br)c1)NC(=O)N1CCC(N2Cc3ccccc3NC2=O)CC1)C(=O)N1CCN(c2ccncc2)CC1 [BIBN4096BS]",
    "pIC50": 8.16
  }
]

---

System under test: rCRLR/rRAMP1 (native rat CGRP receptor) (Rattus norvegicus, UniProt Q63118+Q9JJ74)
Construct: expressed in transfected cells; host or cells: 293 EBNA cells, transient co-transfection, membranes
Assay name: competitive 125I-hCGRP binding, membranes expressing rCRLR/rRAMP1
Experimental setup: Table 6

[
  {
    "Compound": "NCCCC[C@H](NC(=O)[C@@H](Cc1cc(Br)c(O)c(Br)c1)NC(=O)N1CCC(N2Cc3ccccc3NC2=O)CC1)C(=O)N1CCN(c2ccncc2)CC1 [BIBN4096BS]",
    "U": "nM",
    "IC50": 5.5
  }
]

---

System under test: rCRLR/rK74W RAMP1 (Rattus norvegicus, UniProt Q63118+Q9JJ74, K74W)
Construct: and the rRAMP1 expression vector construct as template
Assay name: competitive 125I-hCGRP binding, membranes expressing rCRLR and mutant rK74W RAMP1
Experimental setup: Table 6
pIC50: −log10 of the molar value.
Attribute measured: pIC50

[
  {
    "Molecule": "NCCCC[C@H](NC(=O)[C@@H](Cc1cc(Br)c(O)c(Br)c1)NC(=O)N1CCC(N2Cc3ccccc3NC2=O)CC1)C(=O)N1CCN(c2ccncc2)CC1 [BIBN4096BS]",
    "System under test": "rCRLR/rK74W RAMP1 (Rattus norvegicus, UniProt Q63118+Q9JJ74, K74W)",
    "Reported measurement": 10.10
  }
]

---

System under test: mCRLR/mRAMP1 (native mouse receptor) (Mus musculus, UniProt Q9R1W5+Q9WTJ5)
Assay name: competitive binding, membranes expressing mCRLR/mRAMP1
Experimental setup: Table 7
pIC50: −log10 of the molar value.

[
  {
    "Compound": "NCCCC[C@H](NC(=O)[C@@H](Cc1cc(Br)c(O)c(Br)c1)NC(=O)N1CCC(N2Cc3ccccc3NC2=O)CC1)C(=O)N1CCN(c2ccncc2)CC1 [BIBN4096BS]",
    "pIC50": 8.07
  }
]
